Test system: U-251
Experiment: NCI tumour cell line growth inhibition, 48 h
Calls of active or inactive are those of the source. Rule as the data show it: active = GI50 up to about 1.1 µM and inactive = higher.
# GI50 values compiled below

CC(=O)c1ccc(NC(=O)COC(=O)c2cccc3c(=O)c4ccccc4[nH]c23)cc1	15.5 µM (inactive)

May I ask what GI50 has been recorded for "CCOC(=O)CCSc1nc2ccc(I)cc2c(=O)n1Cc1ccccc1" ? 33 µM (inactive)

May I ask what GI50 has been recorded for COc1ccc(C2C(=O)c3ccc(OC)cc3OC2c2cccnc2)cc1 (stereo unspecified) ? 70.3 µM (inactive)

May I ask what GI50 has been recorded for "Cc1nc(C(N)=S)sc1C(=O)CC(=O)C(=O)Nc1ccccc1[N+](=O)[O-]" ? > 100 µM (inactive)

May I ask what GI50 has been recorded for "COC(=O)Nc1nc2cc(S(=O)(=O)N3CCOCC3)ccc2[nH]1" ? > 100 µM (inactive)

May I ask what GI50 has been recorded for "N#CSc1[nH]cnc1C(N)=O" ? > 95.9 µM (inactive)

----------
# GI50 values compiled below
Tested on: MCF7
Test: NCI tumour cell line growth inhibition, 48 h
Active and inactive are the calls of the source. Rule as the data show it: active = GI50 up to about 1.1 µM and inactive = higher.

May I ask what GI50 has been recorded for "COc1ccc(-c2c(/C=N/OCC(=O)O)c3sc4ccccc4n3c2/C=N/OCC(=O)O)cc1" ? > 50 µM (inactive)

May I ask what GI50 has been recorded for "COC(=O)[C@H](Cc1ccccc1)NC(=O)N1CCCN(C(=O)N[C@@H](Cc2ccccc2)C(=O)OC)CCCN(C(=O)N[C@@H](Cc2ccccc2)C(=O)OC)CCC1" ? 18.2 µM (inactive)

----------
# GI50 values compiled below
Test system: K562
Test: NCI tumour cell line growth inhibition, 48 h
Activity calls are given as the source filed them. No stated cut-off is given here; in the data, active = GI50 up to about 1.1 µM and inactive = higher.

For orientation, consider the following solved cases.
Cc1cc(NC(=S)SCc2ccc(F)cc2)c([N+](=O)[O-])cc1C	32.3 µM (inactive)
Cn1cc[n+](-c2cc(=O)n(C)c(=O)[n-]2)c1	81.8 µM (inactive)

Next molecule, please.
May I ask what GI50 has been recorded for "C=C1C(=O)O[C@@H]2C(=O)[C@@H](C)CCC/C(C)=C/CC[C@@]3(C)O[C@@H]3C[C@@H]12" ? 16.4 µM (inactive)

----------
Test system: UACC-62
Assay: NCI tumour cell line growth inhibition, 48 h
The source made the active and inactive calls. No stated cut-off is given here; in the data, active = GI50 up to about 1.1 µM and inactive = higher.
recorded_metric: GI50

For orientation, consider the following solved cases.
CC(C)(C)[Si](C)(C)OCC1OC(n2cnc3c(NC(=O)c4ccccc4)ncnc32)CC1O (centres undefined)	18.7 µM (inactive)
Cc1cc(NC(=S)SCc2ccc(F)cc2)c([N+](=O)[O-])cc1C	15 µM (inactive)
CCCCCCCCC(O)c1ccc(/C=C\C(O)CCCC(=O)O)s1 (centres undefined)	> 100 µM (inactive)
CCOC(=O)C1(C(=O)OCC)C[C@H](C)[C@](C)(O)C1	> 100 µM (inactive)
COC(=O)CC(CC(=O)C(=O)OC)C(=O)OC (centres undefined)	> 100 µM (inactive)

Next molecule, please.
State its GI50 on UACC-62: COc1ccc(/C(=N/NC(N)=O)C2(O)C(=O)Nc3ccc([N+](=O)[O-])cc32)cc1 (centres undefined) 20 µM (inactive)

----------
Tested on: HT-29
Assay: NCI tumour cell line growth inhibition, 48 h
Active and inactive are the calls of the source. No stated cut-off is given here; in the data, active = GI50 up to about 1.1 µM and inactive = higher.
recorded_metric: GI50

C=CC(CCc1ccc(C(=O)OCC)cc1)c1c(N)nc(N)[nH]c1=O (centres undefined)	72.8 µM (inactive)

May I ask what GI50 has been recorded for CSc1nc2c(nc(C)c(=O)n2C2OCC(OC(C)=O)C(OC(C)=O)C2OC(C)=O)c(=O)[nH]1 (centres undefined) ? > 100 µM (inactive)

May I ask what GI50 has been recorded for COc1ccc(C2C(C#N)=C(S)N(C3OC(CO)C(O)C(O)C3O)C(c3ccccc3)=C2C(C)=O)cc1 (centres undefined) ? 46.1 µM (inactive)

May I ask what GI50 has been recorded for Cc1cccc(C)c1N1C(=O)C(=O)C(c2nc3ccccc3s2)/C(=N/NC(=O)NN)C1=O (centres undefined) ? > 100 µM (inactive)

May I ask what GI50 has been recorded for "c1c2c(cc(-n3nnc4c3CCCCCC4)c1-n1nnc3c1CCCCCC3)CCCCCC2" ? 6.93 µM (inactive)

May I ask what GI50 has been recorded for "CSc1csc(-c2ccc(-c3ccc(-c4cc(SC)cs4)s3)s2)c1" ? > 100 µM (inactive)

May I ask what GI50 has been recorded for CCOC(OCC)N1C(=O)C2(C(OCC)OCC)CC3C(OC(=O)N3N)c3cccc1c32 (centres undefined) ? > 100 µM (inactive)

May I ask what GI50 has been recorded for "Cc1ccc(-c2c(N)[n+]([O-])c3ccccc3[n+]2[O-])cc1" ? 12.3 µM (inactive)

May I ask what GI50 has been recorded for "Cc1ccc(/C=C/c2n[nH]c(N/N=C/c3ccc4c(c3)OCO4)nc2=O)cc1" ? 24 µM (inactive)
